Value source: patent US20260049134A1

# measurement target: T1, ANXA1
# T1 construct: coated protein in the ELISA; also called ANXA1-His (R&D Systems)
# T1 chain: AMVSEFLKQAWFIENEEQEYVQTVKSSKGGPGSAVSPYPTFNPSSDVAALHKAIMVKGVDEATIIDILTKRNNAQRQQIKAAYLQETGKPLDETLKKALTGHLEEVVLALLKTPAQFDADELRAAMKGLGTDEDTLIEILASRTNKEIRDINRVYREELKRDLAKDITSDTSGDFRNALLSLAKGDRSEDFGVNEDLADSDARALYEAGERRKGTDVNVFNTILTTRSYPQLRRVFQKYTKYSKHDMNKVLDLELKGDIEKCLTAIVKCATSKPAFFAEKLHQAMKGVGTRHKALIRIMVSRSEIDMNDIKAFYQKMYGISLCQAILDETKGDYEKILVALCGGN
# test description: ELISA on coated ANXA1-His, 150 ng IgG1; None 0.098
Measured ELISA Absorbance (405 nm-570 nm) accompanies every entry in the list below.
experimental endpoint: ELISA Absorbance (405 nm-570 nm)

[
  {
    "binder": "HW-56 chimeric rabbit-human IgG1 LA/LA/PG (antibody, V domains shown, Fc-silenced (L234A/L235A/P329G) IgG1, kappa; Alexa Fluor 647-labeled in single-step flow cytometry; Cluster C-45) VH: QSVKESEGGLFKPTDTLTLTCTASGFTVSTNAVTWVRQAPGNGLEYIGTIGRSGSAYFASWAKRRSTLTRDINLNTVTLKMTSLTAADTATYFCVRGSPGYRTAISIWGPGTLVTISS VL: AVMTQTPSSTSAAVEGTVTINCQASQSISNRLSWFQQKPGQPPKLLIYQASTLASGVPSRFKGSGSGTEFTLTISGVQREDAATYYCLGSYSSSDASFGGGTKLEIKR",
    "experimental endpoint": "ELISA Absorbance (405 nm-570 nm)",
    "measured value": 0.082
  },
  {
    "binder": "HW-42 chimeric rabbit-human IgG1 LA/LA/PG (antibody, V domains shown, Fc-silenced (L234A/L235A/P329G) IgG1, lambda; Alexa Fluor 647-labeled in single-step flow cytometry; Cluster C-1) VH: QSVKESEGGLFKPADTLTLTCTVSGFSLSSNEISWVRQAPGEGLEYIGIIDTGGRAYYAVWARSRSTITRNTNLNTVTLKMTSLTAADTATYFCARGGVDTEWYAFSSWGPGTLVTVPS VL: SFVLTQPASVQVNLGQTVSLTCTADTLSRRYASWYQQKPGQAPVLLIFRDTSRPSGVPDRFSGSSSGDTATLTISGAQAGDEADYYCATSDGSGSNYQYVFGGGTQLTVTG",
    "experimental endpoint": "ELISA Absorbance (405 nm-570 nm)",
    "measured value": 0.103
  },
  {
    "binder": "HW-97 chimeric rabbit-human IgG1 LA/LA/PG (antibody, V domains shown, Fc-silenced (L234A/L235A/P329G) IgG1, lambda; Alexa Fluor 647-labeled in single-step flow cytometry; Prototype of cluster C-97) VH: QKQLVESGGRLVTPGTPLTLTCTVTGIDLSSHGMSWVRQAPGKGLEWIGVIYPSGSTWYASWARGRFTISKTSTTVDLKMTSLTTEDTATHFCARGDVGGADNNIWGPGTLVTVSS VL: SFVLTQPASVQVDLGQTVSLTCTAETLSRSYASWYQQKPGQAPVLLIYRDTSRPSGVPDRFSGSSSGNTATLTISGAQAGDEADYYCATSDGSGSSYQYVFGGGTQLTVTG",
    "experimental endpoint": "ELISA Absorbance (405 nm-570 nm)",
    "measured value": 0.075
  },
  {
    "binder": "TH9-0022 (antibody, human IgG1, kappa, L234A L235A, V domains shown, also called TH9-022; negative control) VH: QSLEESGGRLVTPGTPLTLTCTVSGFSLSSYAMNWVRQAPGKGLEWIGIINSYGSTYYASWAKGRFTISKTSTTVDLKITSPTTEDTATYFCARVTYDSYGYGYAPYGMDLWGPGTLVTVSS VL: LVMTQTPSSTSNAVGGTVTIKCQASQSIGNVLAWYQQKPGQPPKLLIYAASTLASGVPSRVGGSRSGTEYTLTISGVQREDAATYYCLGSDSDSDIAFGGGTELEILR",
    "experimental endpoint": "ELISA Absorbance (405 nm-570 nm)",
    "measured value": 0.09
  },
  {
    "binder": "HW-81 chimeric rabbit-human IgG1 LA/LA/PG (antibody, V domains shown, Fc-silenced (L234A/L235A/P329G) IgG1, lambda; Alexa Fluor 647-labeled in single-step flow cytometry; Cluster C-45) VH: QKQLVESGGGLVTPGGTLTLTCTVSGFSLSSNGVSWVRQAPGKGLEYIGLIRSIGSTYYATWAKGRFTISKTSTTVDLKITSPTTEDTATYFCARGGYRNGFKLWGPGTLVTVSS VL: QPVLTQSPSVSAALGASAKLTCTLSSAHKTYYIEWYQQQHPGKAPRYLMQLQSDGSYTKGTGVPDRFSGSSSGADRYLIISSVQAEDEADYICGVIDSAVYVFGGGTQLTVTG",
    "experimental endpoint": "ELISA Absorbance (405 nm-570 nm)",
    "measured value": 0.065
  }
]
